Each recorded value in this set is attributed to PubChem BioAssay (EPA / NIEHS).

# experiment: CCTE_Mundy_HCI_Cortical_Synap_Neur_Matur_NeuriteSpotCountPerNeuron: CCTE's Synaptogenesis and Neurite Maturation Assay in rat cortical cells for Neurite Spot Count per Neuron Count, Mundy Lab (AID 2284215)
The source made the active and inactive calls. How the source made its calls: active means hit-call score of the fitted dose curve at least 0.9, where 1 is the maximum; inactive means score below 0.9.
Select the matching outcome among Y = active, N = inactive

Below are worked cases with known answers.
1. NC(=O)c1ccc(N)nc1	Y
2. CC1(C)[C@H](C(=O)O[C@H](C#N)c2cccc(Oc3ccccc3)c2)[C@@H]1/C=C(\Cl)C(F)(F)F	Y
3. CS(=O)(=O)c1ccc(C(=O)C2C(=O)CCCC2=O)c(Cl)c1COCC(F)(F)F	N

Query: So what was the verdict on "CNC(=O)CSP(=O)(OC)OC" in this test?
Response: N

Query: So what was the verdict on CC(C)[C@@H](Nc1ccc(C(F)(F)F)cc1Cl)C(=O)OC(C#N)c1cccc(Oc2ccccc2)c1 (some centres not stated) in this test?
Response: Y

Query: So what was the verdict on OC(Cc1ccccc1Cl)(Cn1[nH]cnc1=S)C1(Cl)CC1 (configuration not stated) in this test?
Response: Y

Query: So what was the verdict on "CCOCn1c(-c2ccc(Cl)cc2)c(C#N)c(Br)c1C(F)(F)F" in this test?
Response: Y
